Taken from PubChem BioAssay.

# assay.remarks: small-molecule microarray binders of probe aEGFR, primary screen, biochemical, biotinylated probe, 635/667 nm fluorescence (AID 1097);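 note: probe is a biotinylated anti-EGFR antibody binding compounds printed on slides; score combines fluorescence near 667 nm and signal to noise of each spot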
# details: higher = more signal
Categorize each record by its composite z-score using I = under -0.07, II = from -0.07 up to 0.2, III = 0.2 and over

[[record]]
compound = "COC(=O)[C@@]1(Cc2ccc(OC)cc2)[C@@H]2C(=CC(=O)[C@H]2CC(=O)C(=O)N(C)C)CN1C(=O)c1ccccc1"
qualitative_label = "II"

[[record]]
compound = "COC(=O)[C@@]1(Cc2ccc(OC)cc2)[C@H]2c3cc(C(=O)N(C)C)n(C[C@H](O)CO)c3C[C@H]2CN1C(=O)c1ccccc1"
qualitative_label = "III"

[[record]]
compound = "CC=CC(O)C1C=CC2C(=O)N(c3ccccc3)C(=O)C2N1Nc1ccccc1F (centres undefined)"
qualitative_label = "III"

[[record]]
compound = "CCCC[C@@H](O)C1=C(COc2ccccc2)C[C@H]2C(=O)N(C)C(=O)[C@H]2[C@H]1CO"
qualitative_label = "I"

[[record]]
compound = "NCCCCCCNC(=O)[C@@H]1C[C@@H]2C(=O)N[C@@H](CCCCN)C(=O)N2[C@@H]1c1cccc(OCCO)c1"
qualitative_label = "III"

[[record]]
compound = "C=CCOC(=O)[C@H]1[C@@H]2C(=O)O[C@@H](c3ccccc3)[C@@H](c3ccccc3)N2[C@@H](c2ccc(OCCOC(=O)[C@H]3C[C@H]4C(=O)N[C@@H](CCCCNC(C)=O)C(=O)N4[C@H]3c3ccc(O)cc3)cc2)[C@]12C(=O)Nc1ccccc12"
qualitative_label = "II"

[[record]]
compound = "O=C1NC(=O)C2C1C=CC(C(O)c1c(F)cccc1Cl)N2Nc1ccc(Cl)cc1Cl (centres undefined)"
qualitative_label = "II"

[[record]]
compound = "CC(CO)N1C(=O)[C@@H]2[C@H]3C(=O)OCC=C[C@H]3OC23C=CCN(C(C)(C)C)C(=O)[C@@H]13 (some centres undefined)"
qualitative_label = "II"

[[record]]
compound = "[N-]=[N+]=NCc1ccccc1C[C@@]1(C(=O)N2CCCCC2)N=C(c2ccc(OCCCO)cc2)O[C@@H]1c1ccccc1"
qualitative_label = "II"

[[record]]
compound = "O=C1N(Cc2ccccc2)Cc2ccccc2[C@@H]2OC(c3ccc(OCCCO)cc3)=N[C@]12CCS(=O)(=O)c1ccccc1"
qualitative_label = "III"

[[record]]
compound = "COc1ccc([Si](C)(C)[C@@H]2[C@@H](CCn3cc([C@H](O)c4ccccc4)nn3)O[C@]3(C(=O)N(Cc4ccc(N5CCC5=O)cc4)c4ccccc43)[C@H]2C)cc1"
qualitative_label = "I"

[[record]]
compound = "C=CCOC(=O)[C@H]1[C@@H]2C(=O)O[C@@H](c3ccccc3)[C@@H](c3ccccc3)N2[C@@H](c2ccc(OCCOC(=O)[C@H]3C[C@H]4C(=O)N[C@@H](CC(C)C)C(=O)N4[C@H]3c3cccc(OCCO)c3)cc2)[C@]12C(=O)Nc1ccc(I)cc12"
qualitative_label = "II"

[[record]]
compound = "COC(=O)c1c2oc(c1C(=O)OC)C(=O)N(C)Cc1cn(nn1)C[C@H](Cc1ccccc1)NC(=O)N[C@H](CO)CC2"
qualitative_label = "I"

[[record]]
compound = "CCCCC(O)C1C=CC2C(=O)N(c3ccccc3)C(=O)C2N1Nc1ccc(C(C)C)cc1 (centres undefined)"
qualitative_label = "II"

